The binders listed here are annotated with their IC50.
Target: T1, blood platelet receptor glycoprotein Ib-IX-V complex (GPIb) (human, UniProt P07359 17-652; P13224 26-206; P14770 17-177; P40197 17-560)
T1 construct: whole, on cells; also called GPIb complex; GPIb receptor
T1 sequence (P07359 17-652, chain 1 of 4): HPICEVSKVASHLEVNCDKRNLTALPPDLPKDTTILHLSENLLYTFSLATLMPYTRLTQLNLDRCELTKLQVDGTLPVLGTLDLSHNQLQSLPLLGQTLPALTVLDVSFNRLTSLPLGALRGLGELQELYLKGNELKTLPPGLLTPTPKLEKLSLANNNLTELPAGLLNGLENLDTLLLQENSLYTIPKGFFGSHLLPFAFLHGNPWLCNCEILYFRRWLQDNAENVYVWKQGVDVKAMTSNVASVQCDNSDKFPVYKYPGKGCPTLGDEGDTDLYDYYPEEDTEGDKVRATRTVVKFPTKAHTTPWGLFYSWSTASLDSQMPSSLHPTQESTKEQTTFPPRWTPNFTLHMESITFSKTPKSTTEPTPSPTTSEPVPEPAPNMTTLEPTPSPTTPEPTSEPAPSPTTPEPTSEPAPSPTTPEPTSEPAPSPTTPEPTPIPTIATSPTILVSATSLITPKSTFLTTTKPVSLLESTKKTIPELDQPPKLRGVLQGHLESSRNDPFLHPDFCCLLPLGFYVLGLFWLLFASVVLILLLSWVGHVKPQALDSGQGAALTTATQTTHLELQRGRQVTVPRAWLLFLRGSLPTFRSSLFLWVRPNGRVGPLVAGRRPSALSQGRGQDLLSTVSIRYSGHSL
T1 sequence (P13224 26-206, chain 2 of 4): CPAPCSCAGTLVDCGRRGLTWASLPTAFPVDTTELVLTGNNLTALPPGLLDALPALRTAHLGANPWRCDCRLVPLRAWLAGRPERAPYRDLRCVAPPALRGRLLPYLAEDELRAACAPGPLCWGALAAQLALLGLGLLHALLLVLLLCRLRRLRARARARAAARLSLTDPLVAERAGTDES
T1 sequence (P14770 17-177, chain 3 of 4): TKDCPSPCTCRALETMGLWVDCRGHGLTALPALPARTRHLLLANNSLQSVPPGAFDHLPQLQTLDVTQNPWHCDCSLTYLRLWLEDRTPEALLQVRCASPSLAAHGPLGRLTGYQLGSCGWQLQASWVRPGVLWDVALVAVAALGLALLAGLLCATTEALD
T1 sequence (P40197 17-560, chain 4 of 4): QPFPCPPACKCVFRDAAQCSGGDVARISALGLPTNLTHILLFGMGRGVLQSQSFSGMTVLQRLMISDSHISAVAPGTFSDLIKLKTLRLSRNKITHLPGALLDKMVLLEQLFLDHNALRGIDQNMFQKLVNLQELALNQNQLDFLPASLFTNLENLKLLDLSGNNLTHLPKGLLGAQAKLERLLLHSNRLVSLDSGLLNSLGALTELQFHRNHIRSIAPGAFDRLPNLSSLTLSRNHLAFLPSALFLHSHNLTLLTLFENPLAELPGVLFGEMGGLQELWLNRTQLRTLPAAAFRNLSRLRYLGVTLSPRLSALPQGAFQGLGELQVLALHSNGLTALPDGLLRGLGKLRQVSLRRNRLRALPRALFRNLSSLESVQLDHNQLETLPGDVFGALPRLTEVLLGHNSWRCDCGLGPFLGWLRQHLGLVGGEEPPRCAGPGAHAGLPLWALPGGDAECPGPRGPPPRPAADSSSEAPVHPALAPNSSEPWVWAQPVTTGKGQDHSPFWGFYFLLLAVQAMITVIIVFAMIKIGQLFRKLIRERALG
Test: inhibition of static adhesion of human platelets to coated vWF-A1; grade B = IC50 between 1 µM and 10 µM
Non-standard residues stand in square brackets, D forms with d. Nva = CCC[C@H](N)C(=O)O; Ahp = NCCCCCCC(=O)O

| BINDER | IC50 |
| --- | --- |
| cyclo(LHNL[Ahp]TERM[Nva]) (SMILES CCC[C@@H]1NC(=O)[C@H](CCSC)NC(=O)[C@H](CCCNC(=N)N)NC(=O)[C@H](CCC(=O)O)NC(=O)[C@H]([C@@H](C)O)NC(=O)CCCCCCNC(=O)[C@H](CC(C)C)NC(=O)[C@H](CC(N)=O)NC(=O)[C@H](Cc2c[nH]cn2)NC(=O)[C@H](CC(C)C)NC1=O) [Cyclo[Leu-His-Asn-Leu-NH-(CH2)6-CO-Thr-Glu-Arg-Met-Nva]] | 1 to 10 µM |

Could you now look at the following binder, please?
Query :: Fill in: IC50 of cyclo(IHNL[Ahp]TERMA) (SMILES CC[C@H](C)[C@@H]1NC(=O)[C@H](C)NC(=O)[C@H](CCSC)NC(=O)[C@H](CCCNC(=N)N)NC(=O)[C@H](CCC(=O)O)NC(=O)[C@H]([C@@H](C)O)NC(=O)CCCCCCNC(=O)[C@H](CC(C)C)NC(=O)[C@H](CC(N)=O)NC(=O)[C@H](Cc2c[nH]cn2)NC1=O) [Cyclo[Ile-His-Asn-Leu-NH-(CH2)6-CO-Thr-Glu-Arg-Met-Ala]] is ___
Result :: 1 to 10 µM
